# target: CDK4/cyclin D3 (Homo sapiens, UniProt P11802)
# Construct: purchased Carna Biosciences, Inc. QS S Assist CDK4/Cyclin D3_FP Kit
# Sequence (P11802 whole entry): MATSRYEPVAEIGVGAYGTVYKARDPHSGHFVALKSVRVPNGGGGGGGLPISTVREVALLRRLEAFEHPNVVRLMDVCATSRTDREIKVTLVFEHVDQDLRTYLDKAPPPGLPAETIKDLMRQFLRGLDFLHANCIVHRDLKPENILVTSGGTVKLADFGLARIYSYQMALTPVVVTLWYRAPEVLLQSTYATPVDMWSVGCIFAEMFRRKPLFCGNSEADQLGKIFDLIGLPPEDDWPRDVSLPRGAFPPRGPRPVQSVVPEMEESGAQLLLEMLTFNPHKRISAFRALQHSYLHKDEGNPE
# Sequence (P30281 whole entry partner): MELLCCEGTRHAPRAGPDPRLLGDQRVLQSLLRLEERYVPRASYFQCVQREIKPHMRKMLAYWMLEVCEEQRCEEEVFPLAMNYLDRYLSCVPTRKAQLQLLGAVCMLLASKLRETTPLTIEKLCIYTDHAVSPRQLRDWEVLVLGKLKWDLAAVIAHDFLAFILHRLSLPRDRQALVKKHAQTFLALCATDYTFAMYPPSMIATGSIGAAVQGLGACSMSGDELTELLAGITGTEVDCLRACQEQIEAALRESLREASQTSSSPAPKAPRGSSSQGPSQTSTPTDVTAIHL
# procedure.summary: Human CDK4/cyclin D3 inhibitory activity (QS S Assist CDK4/Cyclin D3_FP Kit, IMAP fluorescence polarization)
# Type: biochemical
# conditions: Human CDK4/cyclin D3 inhibitory activity; read-out: CDK4 Activity symbol
pIC50: −log10 of the molar value.
quantity.measured: pIC50

{"columns": ["molecule", "result"],
 "data": [
  ["CO[C@H](C)c1cc2cnc(Nc3ccc(N4CCNCC4)nn3)nc2c(N[C@@H]2CCCOC2)n1", "> 8.00"],
  ["C[C@@H](O)c1cc2cnc(Nc3ccc(N4CCC(O)CC4)nn3)nc2c(NC2CCC(C)(C)OC2)n1 (stereo partly shown)", "> 8.00"],
  ["CC(C)Nc1nc([C@@H](C)O)cc2cnc(Nc3ccc(O[C@@H]4CCCNC4)cn3)nc12", "> 8.00"],
  ["CC(C)Nc1nc([C@@H](C)O)cc2cnc(Nc3ccc(N4CCNCCC4=O)cn3)nc12", "> 8.00"],
  ["COC(C)c1cc2cnc(Nc3ccc(CN4CCNCC4)cn3)nc2c(NC2(C)CCOCC2)n1 (stereo not shown)", "> 8.00"],
  ["CO[C@H](C)c1cc2cnc(Nc3ccc(N4CCN(CCO)CC4)nn3)nc2c(NC(C)C)n1", "> 8.00"],
  ["C[C@@H](O)c1nc(NC2CCOCC2)c2nc(Nc3ccc(CN4CCNCC4)cn3)ncc2c1Cl", "> 8.00"],
  ["CC(=O)NCCc1ccc(Nc2ncc3cc(C(F)F)nc(NC(C)C)c3n2)nc1", "> 8.00"],
  ["CNCCCOc1ccc(Nc2ncc3cc([C@@H](C)OC)nc(NC(C)C)c3n2)nn1", "7.00 to 8.00"],
  ["C[C@@H](O)c1cc2cnc(Nc3ccc(N4CCNCC4)nn3)nc2c(NCC2CCOC2)n1 (stereo partly shown)", "> 8.00"],
  ["CC(C)Nc1nc(C(F)F)cc2cnc(Nc3ccc(CNC(N)=O)cn3)nc12", "> 8.00"],
  ["COC(C)c1cc2cnc(Nc3ccc(CN4CCNCC4)cn3)nc2c(NCCN2CCCC2=O)n1 (stereo not shown)", "7.00 to 8.00"],
  ["CO[C@H](C)c1cc2cnc(Nc3ccc(CN4CCNCC4)cn3)nc2c(N[C@@H]2CCCOC2)n1", "> 8.00"],
  ["CNC1C2CCC1CN(c1ccc(Nc3ncc4cc([C@@H](C)OC)nc(NC(C)C)c4n3)nc1)C2 (stereo partly shown)", "> 8.00"],
  ["CC(C)Nc1nc(C(F)F)cc2cnc(Nc3ccc(CNS(C)(=O)=O)cn3)nc12", "> 8.00"],
  ["CC(C)Nc1nc(C(F)F)cc2cnc(Nc3ccc(C(=O)NCCO)cn3)nc12", "7.00 to 8.00"]
]}
